Test: E. coli growth modulation, two-sided OD650, primary screen, E. coli filamentation project, strain DRC41, 24 h (AID 1093);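 also: MC1000 strain lacking acrAB efflux and sulA so SOS filamentation is blocked; test concentration not given here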
Details: OD650, 24 h, higher = more signal, called active from +8 up or from −8 down
Classify by measured z-score: yes (1) if it is equal to or exceeds 0.7, no (0) if it is smaller.

MOLECULE: COc1ccc(O[C@H]2C=C[C@@H](c3ccccc3)O[C@@H]2COC(=O)CCC(C)=NOCC[C@@H]2C=C[C@H](OC(C)=O)[C@@H](COC(C)=O)O2)cc1
LABEL_CLASS: no (0)
//
MOLECULE: COCCCNC(=O)[C@@]1(C)c2ccccc2C(=O)N(Cc2ccc(OC(F)(F)F)cc2)[C@H]1c1ccc(CO)cc1
LABEL_CLASS: yes (1)
//
MOLECULE: COc1cccc([C@H]2Oc3ccc(OC)cc3C(=NOC(C)CN3CCCc4nc(C)c(C)cc43)[C@@H]2O)c1 (stereo partly drawn)
LABEL_CLASS: yes (1)
//
MOLECULE: CO[C@H]1COC(=O)[C@H](C)COC(=O)CC=C[C@@H](C)[C@H](OC)COC(=O)CC=C[C@@H]1C
LABEL_CLASS: no (0)
//
MOLECULE: COC(=O)[C@@H]1N=C(c2ccc(OCCCO)cc2)O[C@@H]1c1ccccc1N=[N+]=[N-]
LABEL_CLASS: yes (1)
//
MOLECULE: COC(=O)CC1OC1[C@H](C)[C@@H](OC)C(C)C (stereo partly drawn)
LABEL_CLASS: no (0)
//
MOLECULE: COCCCNC(=O)[C@@]1(Sc2ccc(C)cc2)CC(=O)N(Cc2ccccc2)[C@@H]1c1ccc(CO)cc1I
LABEL_CLASS: no (0)

----------
Experiment: E. coli growth modulation, two-sided OD650, primary screen, E. coli filamentation project, strain DRC41, 24 h (AID 1093);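 also: MC1000 strain lacking acrAB efflux and sulA so SOS filamentation is blocked; test concentration not given here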
Settings: OD650, 24 h, higher = more signal, called active from +8 up or from −8 down

COMPOUND: CC(C)c1ccc(NN2C(C(O)c3ccc4c(c3)OCO4)C=CC3C(=O)N(c4ccccc4)C(=O)C32)cc1 (configuration not stated)
z-score: 0.0026

COMPOUND: CCOC(=O)CCN1C(=O)[C@H]2[C@H]3[C@H](O)C=CC(=O)[C@@H]3CC[C@H]2C1=O
z-score: 0.399

COMPOUND: O=C1C[C@]2(c3ccc([N+](=O)[O-])cc3)C(=O)N(CCN3CCOCC3)c3cc(CO)ccc3[C@H]2N1CC12CC3CC(CC(C3)C1)C2
z-score: 0.679

COMPOUND: CC(=O)OC[C@H]1O[C@H](C#CCCCc2ccccc2)C=C[C@@H]1OC(C)=O
z-score: 0.0065

COMPOUND: CCOC(=O)CCN1C(=O)[C@H]2[C@H]3[C@H](O)[C@H](O)CC(=NOCc4ccccc4)[C@@H]3CC[C@H]2C1=O
z-score: -0.961

COMPOUND: CCOC(=O)[C@H](CC(C)C)NC(=O)CCC1CC(OC(=O)NCc2cccc3ccccc23)CC2(CCCC(COC(=O)NCCc3ccccc3OC)O2)O1 (some centres not stated)
z-score: -0.197

COMPOUND: COc1ccc(O[C@H]2C=C[C@@H](c3ccccc3)O[C@@H]2COC(=O)CCC(C)=NO[C@@H](C)c2cc(-c3c(C)cc(C)cc3C)no2)cc1
z-score: -0.312

Ref: PubChem BioAssay
